- tested_on: alpha2B adrenergic receptors (Homo sapiens, UniProt P18089)
- Construct: expressed in transfected cells; host or cells: NIH-3T3
- Sequence (P18089 whole entry): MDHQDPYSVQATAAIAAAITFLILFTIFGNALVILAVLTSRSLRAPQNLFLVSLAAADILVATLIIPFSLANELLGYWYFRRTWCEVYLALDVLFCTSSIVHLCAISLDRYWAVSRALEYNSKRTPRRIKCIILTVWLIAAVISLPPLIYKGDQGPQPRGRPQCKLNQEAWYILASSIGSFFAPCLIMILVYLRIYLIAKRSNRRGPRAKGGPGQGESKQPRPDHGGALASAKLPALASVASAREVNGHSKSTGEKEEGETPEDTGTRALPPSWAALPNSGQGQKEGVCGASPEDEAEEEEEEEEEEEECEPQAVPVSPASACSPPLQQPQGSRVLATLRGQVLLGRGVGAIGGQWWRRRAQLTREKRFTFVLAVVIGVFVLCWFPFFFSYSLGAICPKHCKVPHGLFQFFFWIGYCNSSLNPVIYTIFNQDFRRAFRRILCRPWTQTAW
- protocol_notes: Receptor Selection and Amplification Technology (RSAT) assay, alpha2B
- Type: cell-based
- condition_summary: fraction of maximal effect of standard full agonist brimonidine (UK14304)
Cut-off 0.9 on Alpha 2B intrinsic activity: below means fulfilled, at or above means not fulfilled.

Look over these answered cases.
CC1CC(Cc2c[nH]c(=S)[nH]2)C(=O)c2ccccc21 (centres unmarked)	not fulfilled
S=c1[nH]cc(CC2CCc3cc(Cl)ccc32)[nH]1 (centres unmarked)	fulfilled
S=c1[nH]cc(C2Cc3ccc(Cl)c(Cl)c3C2)[nH]1 (centres unmarked)	not fulfilled
Fc1ccc2c(c1F)CCC2Cc1c[nH]c(=S)[nH]1 (centres unmarked)	fulfilled

Input: Find out if reported Alpha 2B intrinsic activity for Fc1cccc(C2=CCC[C@H]2Cc2c[nH]c(=S)[nH]2)c1 is less than 0.9
Output: fulfilled

Input: Lookup O=C1c2c(CO)cccc2CCC1Cc1c[nH]c(=S)[nH]1 (centres unmarked)
Output: not fulfilled
